- measurement-description: binders of probe aFGF2 on microarray, primary screen, stem cell growth factor project, biochemical, small-molecule microarray, fluorescence 635/667 (AID 1067);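 also: measures binding of biotinylated aFGF2 protein to printed compounds on slides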
- experimental-parameters: higher = more signal
Label scheme for composite z-score: lower than -0.06 is rule not met, -0.06 and above is rule met.

Query: Exam item: decide whether the reported composite z-score for CC(C)=NOC(C)CN1CCCCc2nc(C)c(C)cc21 (configuration not stated) is at least -0.06.
Response: rule not met

Query: Exam item: decide whether the reported composite z-score for CCN1C(=O)[C@H]2[C@H]3[C@H](O)[C@H](O)CC(=NOCC[C@@H]4C=C[C@H](OC(C)=O)[C@@H](COC(C)=O)O4)[C@@H]3CC[C@H]2C1=O is at least -0.06.
Response: rule met

Query: Exam item: decide whether the reported composite z-score for COC(=O)[C@@H]1CC[C@H](C)[C@@H](c2ccc(Br)cc2)N1 is at least -0.06.
Response: rule met

Query: Exam item: decide whether the reported composite z-score for COc1ccc(O[C@H]2C=C[C@@H](C#Cc3ccccc3)O[C@@H]2CO)cc1 is at least -0.06.
Response: rule met

Query: Exam item: decide whether the reported composite z-score for OC[C@H]1O[C@H](C#Cc2ccccc2)C=C[C@@H]1O is at least -0.06.
Response: rule not met

Query: Exam item: decide whether the reported composite z-score for COC(=O)CC=C[C@@H](C)[C@@H](C=NOC[C@@H](C)[C@H](OCc1ccccc1)C(C)C)OC is at least -0.06.
Response: rule not met

Query: Exam item: decide whether the reported composite z-score for C=CC[C@@H]1C=C[C@H](Oc2ccc(C)cc2)[C@@H](COC(=O)NCc2cccc3ccccc23)O1 is at least -0.06.
Response: rule not met

Query: Exam item: decide whether the reported composite z-score for O=C(NN=C1C[C@@H](O)[C@@H](O)[C@@H]2[C@@H]3C(=O)N(c4ccc(F)cc4F)C(=O)[C@@H]3CC[C@H]12)OCc1ccccc1 is at least -0.06.
Response: rule not met

Query: Exam item: decide whether the reported composite z-score for CO[C@@H]1COC(=O)[C@H](CCSC)NC(=O)CC=C[C@@H](C)COC(=O)[C@@H]2CCCN2C(=O)CC=C[C@H]1C is at least -0.06.
Response: rule not met

Query: Exam item: decide whether the reported composite z-score for COc1ccc(COC(=O)NN=C2C[C@@H](O)[C@@H](O)[C@@H]3[C@@H]4C(=O)N(C(C)(C)C)C(=O)[C@@H]4CC[C@@H]23)cc1 is at least -0.06.
Response: rule met

Query: Exam item: decide whether the reported composite z-score for CCCNC(=O)OC[C@H]1O[C@H](CCON=C[C@@H](NS(=O)(=O)c2ccc(C)cc2)[C@H](C)C=CCC(=O)OC)C=C[C@@H]1Oc1ccc(OC)cc1 is at least -0.06.
Response: rule met
